- Test system: MALME-3M melanoma
- experiment: NCI tumour cell line growth inhibition, 48 h
parameter.measured: GI50

Consider CCSc1nc(N)c2cn[nH]c2n1 . Its measured GI50 is 31.2 µM

Consider O=C1c2cccnc2-c2nc(-c3ccncc3)cc3c2c1nc1ccccc13 . Its measured GI50 is 14.9 µM

Consider O=C(/C=C/c1ccccc1)CC(c1ccccc1)N1CCOCC1 (stereo not drawn) . Its measured GI50 is 4.4 µM

----------
Catalogue of TGI values
- System: M14 melanoma
- experiment: NCI tumour cell line growth inhibition, 48 h

As a guide, the following entries are already answered.
1) CCOc1cc(C2CC(c3ccc(NS(=O)(=O)c4cc([N+](=O)[O-])ccc4C)cc3)=NN2C(=O)c2ccccc2)ccc1O (centres undefined) : 76.1 µM
2) CC(=O)[O-].CC(=O)[O-].CC(=O)[O-].CC(=O)[O-].[Mo+2].[Mo+2] : > 100 µM
3) Cc1cc2c(Br)cc(Br)c(O)c2nc1C(=O)c1ccccc1 : > 60.2 µM
4) CCN(CC)CC(=O)N1CCc2c([nH]c3ccccc23)C1c1cccnc1 (centres undefined) : > 100 µM
5) CN(C)Cc1cc(C(=O)/C=C/c2ccc(O)cc2)cc(CN(C)C)c1O : > 100 µM
6) O=C(/C=C/c1ccccc1)CC(c1ccccc1)N1CCOCC1 (centres undefined) : 3.41 µM

TGI for M14 melanoma with input COc1ccc2cc3c4cc5c(cc4cc[n+]3cc2c1OC)OCO5 equals 68 µM

TGI for M14 melanoma with input Cc1c(C(=O)CSc2nc3ccccc3c(=O)n2-c2ccccc2)c(=O)n(-c2ccccc2)n1C equals > 100 µM

----------
- Tested on: A549 NSCLC
- experiment: NCI tumour cell line growth inhibition, 48 h
parameter.measured: TGI

As a guide, the following entries are already answered.
1. CS(=O)(=O)OCCn1c(=O)n(CCOS(C)(=O)=O)c(=O)n(CCOS(C)(=O)=O)c1=O : > 100 µM
2. CN(C)Cc1cc(C(=O)/C=C/c2ccc(O)cc2)cc(CN(C)C)c1O : > 100 µM
3. CC(=O)OC1COC(n2c(=S)n(-c3ccccc3)c(=O)c3cc(Br)ccc32)C(OC(C)=O)C1OC(C)=O (stereo not given) : > 100 µM
4. CSc1cc(Cl)c(C)cc1S(=O)(=O)NC(=O)NNc1ccc(Cl)cc1 : > 100 µM

Consider COC(=O)/C(C#N)=C1\CCC(C(=O)OC)N1C (stereo not given) . Its measured TGI is > 100 µM

----------
- System: SK-MEL-5 melanoma
- experiment: NCI tumour cell line growth inhibition, 48 h
Catalogue of TGI values

As a guide, the following entries are already answered.
1. Cc1cc(N(CCC#N)CCC#N)ccc1/C=C1N=C(/C=C/c2ccccc2)OC(=O)N\1 : > 100 µM
2. Oc1ccccc1/C=N/c1nc2cc3sc(/N=C/c4ccccc4O)nc3cc2s1 : > 100 µM
3. C=CCC1[C@@H](C(C)(C)C(C(C)=O)C(=O)C(=O)OC)OC(C(C)(C)C)N1C(=O)OC (stereo not given in full) : > 100 µM
4. Cn1c2ccccc2c2c(=O)c3ccccc3[nH]c21 : > 100 µM

Now for the compound whose TGI we want.
Consider Cc1ccc2nc3c(Cl)c(C)c(=O)cc-3sc2c1 . Its measured TGI is > 100 µM
